# assay.summary: Plasma budesonide pharmacokinetics in asthmatic children, twice a day nebulization over six weeks
# Format: in vivo, human (asthmatic children)
# cond: human, plasma, inhaled; 0.25 mg dose; read-out: Tmax averaged over 6 weeks (converted)
measure.name: Tmax at 6 weeks (min)
Please give a number only; it is taken to be in min.

Query: Entry CCCC1O[C@@H]2C[C@H]3[C@@H]4CCC5=CC(=O)C=C[C@]5(C)[C@H]4[C@@H](O)C[C@]3(C)[C@]2(C(=O)CO)O1 (stereo partly shown) [Budesonide, budesonide] has what Tmax at 6 weeks?
Response: 4.1

====

# assay.summary: Plasma budesonide pharmacokinetics in asthmatic children, twice a day nebulization over six weeks
# Format: in vivo, human (asthmatic children)
# cond: human, plasma, inhaled; 0.135 mg dose; First Dose; asthmatic children; read-out: T1/2 (geometric mean)
measure.name: half-life

Query: Entry CCCC1O[C@@H]2C[C@H]3[C@@H]4CCC5=CC(=O)C=C[C@]5(C)[C@H]4[C@@H](O)C[C@]3(C)[C@]2(C(=O)CO)O1 (stereo partly shown) [Budesonide, budesonide] has what half-life?
Response: 42.1 min
